molecular target: LXRβ LBD (Homo sapiens, UniProt P55055); test: differential HDX-MS of LXRβ LBD (apo vs ligand-bound); design: human his-tagged LXRβ LBD (216-461); His tag; made in house; host or cells: Escherichia coli BL21(DE3); conditions: after 30 s of deuterium exchange
Sequence (P55055 215-460 limits assumed): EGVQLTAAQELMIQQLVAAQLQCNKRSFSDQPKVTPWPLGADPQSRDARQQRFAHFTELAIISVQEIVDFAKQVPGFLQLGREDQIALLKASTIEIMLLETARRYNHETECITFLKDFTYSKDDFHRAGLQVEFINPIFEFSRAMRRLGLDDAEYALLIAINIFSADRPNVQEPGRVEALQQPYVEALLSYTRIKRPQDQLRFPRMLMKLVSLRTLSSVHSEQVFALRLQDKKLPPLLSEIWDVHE
MEASURED_QUANTITY: protection of LXRβ H11–H12 from deuterium exchange

Entry O=S(=O)(c1ccccc1)N(CC(F)(F)F)c1ccc(C(O)(C(F)(F)F)C(F)(F)F)cc1 [T0901317, reference compound] has what protection of LXRβ H11–H12 from deuterium exchange?
17-25%

Give protection of LXRβ H11–H12 from deuterium exchange for all molecules that follow.
1. C[C@H](CC[C@@H]1OC1(C)C)[C@H]1CC[C@H]2[C@@H]3CC=C4C[C@@H](O)CC[C@]4(C)[C@H]3CC[C@]12C [24,25EC, 24(S),25-epoxycholesterol, reference compound]
2. O=C1C(Cc2ccccc2)=C(NCCCCc2ccccc2)C(=O)N1Cc1ccccc1
3. CC(C)N1C(=O)C(NC2CCN(c3ncc(CC(=O)O)cc3Cl)CC2)=C(c2ccccc2)S1(=O)=O
4. CC(C)N1C(=O)C(NCCCCc2cccc(S(N)(=O)=O)n2)=C(c2ccccc2)S1(=O)=O

["10%", "17-25%", "17-25%", "17-25%"]
